test system: Neutrophil; assay: Antiinflammatory activity against LPS-stimulated human neutrophils assessed as reduction in IL-8 production incubated for 1 hr followed by LPS stimulation measured after 18 to 24 hrs by ELISA; assay type: functional, cell-based
Please go through the items and note down their pIC50.
Give bare numbers, as −log10 of the molar value.

Example compounds with recorded pIC50:
{"smiles structure": "COc1cc(-c2oc3cc(O)c(OC)c(O)c3c(=O)c2O[C@@H]2O[C@H](CO)[C@H](O)[C@H](O)[C@H]2O)ccc1O", "pIC50": 4.28}
{"smiles structure": "COc1c(O)cc2oc(-c3ccc(O)c(O)c3)c(O[C@@H]3O[C@H](CO)[C@H](O)[C@H](O)[C@H]3O[C@@H]3OC[C@](O)(CO[C@@H]4OC[C@H](O)[C@H](O)[C@H]4O)[C@H]3O)c(=O)c2c1O", "pIC50": 4.61}
{"smiles structure": "COc1c(O)cc2oc(-c3ccc(O)c(O)c3)c(O[C@@H]3O[C@H](CO)[C@H](O)[C@H](O)[C@H]3O)c(=O)c2c1O", "pIC50": 5.10}
{"smiles structure": "COc1c(O)cc2oc(-c3ccc(O)c(O)c3)c(O[C@@H]3O[C@H](CO)[C@H](O)[C@H](O)[C@H]3O[C@@H]3OC[C@](O)(CO)[C@H]3O)c(=O)c2c1O", "pIC50": 5.14}
{"smiles structure": "COc1cc(/C=C/C(=O)OC[C@H]2O[C@@H](Oc3cc4oc(-c5ccc(O)c(O)c5)c(O[C@@H]5O[C@H](CO)[C@H](O)[C@H](O)[C@H]5O)c(=O)c4c(O)c3OC)[C@H](O)[C@@H](O)[C@@H]2O)ccc1O", "pIC50": 4.33}
{"smiles structure": "COc1c(O)cc2oc(-c3ccc(O)cc3)c(O[C@@H]3O[C@H](CO)[C@H](O)[C@H](O)[C@H]3O)c(=O)c2c1O", "pIC50": 4.74}
{"smiles structure": "COc1c(O[C@@H]2O[C@H](CO)[C@@H](O)[C@H](O)[C@H]2O)cc2oc(-c3ccc(O)c(O)c3)c(O[C@@H]3O[C@H](CO)[C@H](O)[C@H](O)[C@H]3O)c(=O)c2c1O", "pIC50": 4.18}
{"smiles structure": "COc1c(O)cc2oc(-c3ccc(O)c(O)c3)c(O[C@@H]3O[C@H](CO[C@@H]4OC[C@H](O)[C@H](O)[C@H]4O)[C@H](O)[C@H](O)[C@H]3O)c(=O)c2c1O", "pIC50": 4.59}
{"smiles structure": "COc1cc(-c2oc3cc(O[C@@H]4O[C@H](CO)[C@@H](O)[C@H](O)[C@H]4O)c(OC)c(O)c3c(=O)c2O[C@@H]2O[C@H](CO)[C@H](O)[C@H](O)[C@H]2O)ccc1O", "pIC50": 4.59}
{"smiles structure": "COc1c(O)cc2oc(-c3ccc(O)c(O)c3)c(O[C@@H]3O[C@H](CO[C@@H]4O[C@H](CO)[C@@H](O)[C@H](O)[C@H]4O)[C@H](O)[C@H](O)[C@H]3O)c(=O)c2c1O", "pIC50": 4.54}

Please look at the following compound next.
# compound `O=c1c(O)c(-c2ccc(O)c(O)c2)oc2cc(O)cc(O)c12` ; its pIC50 = 4.48
